System Under Test: Matrix metalloproteinase-9 (Homo sapiens, UniProt P14780)
Sequence (P14780 whole entry): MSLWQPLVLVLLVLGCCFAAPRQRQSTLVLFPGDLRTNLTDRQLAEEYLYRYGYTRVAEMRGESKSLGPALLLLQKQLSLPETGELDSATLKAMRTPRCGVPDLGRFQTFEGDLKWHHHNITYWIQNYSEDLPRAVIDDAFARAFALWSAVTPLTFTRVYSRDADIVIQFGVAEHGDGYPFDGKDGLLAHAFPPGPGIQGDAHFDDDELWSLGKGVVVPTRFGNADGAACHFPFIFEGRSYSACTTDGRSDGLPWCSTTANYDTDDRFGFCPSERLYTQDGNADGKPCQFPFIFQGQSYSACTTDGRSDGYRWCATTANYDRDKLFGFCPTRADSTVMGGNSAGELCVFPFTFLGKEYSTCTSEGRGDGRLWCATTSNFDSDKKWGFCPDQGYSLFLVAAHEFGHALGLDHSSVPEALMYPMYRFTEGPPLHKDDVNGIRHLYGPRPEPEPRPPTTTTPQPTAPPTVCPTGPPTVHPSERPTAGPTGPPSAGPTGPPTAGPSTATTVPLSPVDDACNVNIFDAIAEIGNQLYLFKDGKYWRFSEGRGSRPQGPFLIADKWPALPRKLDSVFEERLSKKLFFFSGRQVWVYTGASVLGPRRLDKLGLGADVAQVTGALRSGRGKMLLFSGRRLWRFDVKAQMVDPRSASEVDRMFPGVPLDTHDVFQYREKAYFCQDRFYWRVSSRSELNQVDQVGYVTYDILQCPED
Assay Protocol: Inhibition of human active MMP9 using (7-methoxycoumarin-4-yl)acetyl-Pro-Leu-Gly-Leu-(3-(2,4-dinitrophenyl)-L-2,3-diamino-propionyl)Ala-Arg-NH2 as substrate preincubated for 30 mins followed by substrate addition and measured for 10 mins by fluorescence assay
Test Settings: read-out: IC50
Measured Attribute: log10 of IC50 (log10 of the value in nM)
Each number you see is log10 of IC50, and the unit inside the log is nM.

Below are worked cases with known answers.
Molecule: CCCCCCCCC1(Cc2ccc(OC)cc2)C(=O)NC(=O)NC1=O
System Under Test: Matrix metalloproteinase-9 (Homo sapiens, UniProt P14780)
log10 of IC50: 0.48

Molecule: COc1ccc(CC2(CCCCCCC(F)CF)C(=O)NC(=O)NC2=O)cc1 (stereo unspecified)
System Under Test: Matrix metalloproteinase-9 (Homo sapiens, UniProt P14780)
log10 of IC50: 1.67

Molecule: CCCCCCCCCC1(Cc2ccccc2)C(=O)NC(=O)NC1=O
System Under Test: Matrix metalloproteinase-9 (Homo sapiens, UniProt P14780)
log10 of IC50: 0.70

Molecule: CCCCCCCCC1(Cc2ccccc2)C(=O)NC(=O)NC1=O
System Under Test: Matrix metalloproteinase-9 (Homo sapiens, UniProt P14780)
log10 of IC50: 1.34

Molecule: COc1ccc(CC2(CCCCCCCC(F)(F)F)C(=O)NC(=O)NC2=O)cc1
System Under Test: Matrix metalloproteinase-9 (Homo sapiens, UniProt P14780)
log10 of IC50: 1.79

Molecule: COc1ccc(CC2(CCCCCCCC(F)CF)C(=O)NC(=O)NC2=O)cc1 (racemic)
System Under Test: Matrix metalloproteinase-9 (Homo sapiens, UniProt P14780)
log10 of IC50: 1.41

I am curious: what log10 of IC50 value has been reported for O=C1NC(=O)C(CCCCCCC(F)CF)(Cc2ccccc2)C(=O)N1 (stereo unspecified) ? 2.09

I am curious: what log10 of IC50 value has been reported for COc1ccc(CC2(CCCCCCCC(C)C)C(=O)NC(=O)NC2=O)cc1 ? 1.78

I am curious: what log10 of IC50 value has been reported for O=C1NC(=O)C(CCCCCCCC(F)CF)(Cc2ccccc2)C(=O)N1 (stereo unspecified) ? 1.78

I am curious: what log10 of IC50 value has been reported for O=C1NC(=O)C(CCCCCCCC(F)(F)F)(Cc2ccccc2)C(=O)N1 ? 1.72

I am curious: what log10 of IC50 value has been reported for CCCCCCCCCC1(Cc2ccc(OC)cc2)C(=O)NC(=O)NC1=O ? 1.97

###

Property: log10(IC50); scope: individual compounds
System Under Test: 72 kDa type IV collagenase (Homo sapiens)
Sequence (P08253 whole entry): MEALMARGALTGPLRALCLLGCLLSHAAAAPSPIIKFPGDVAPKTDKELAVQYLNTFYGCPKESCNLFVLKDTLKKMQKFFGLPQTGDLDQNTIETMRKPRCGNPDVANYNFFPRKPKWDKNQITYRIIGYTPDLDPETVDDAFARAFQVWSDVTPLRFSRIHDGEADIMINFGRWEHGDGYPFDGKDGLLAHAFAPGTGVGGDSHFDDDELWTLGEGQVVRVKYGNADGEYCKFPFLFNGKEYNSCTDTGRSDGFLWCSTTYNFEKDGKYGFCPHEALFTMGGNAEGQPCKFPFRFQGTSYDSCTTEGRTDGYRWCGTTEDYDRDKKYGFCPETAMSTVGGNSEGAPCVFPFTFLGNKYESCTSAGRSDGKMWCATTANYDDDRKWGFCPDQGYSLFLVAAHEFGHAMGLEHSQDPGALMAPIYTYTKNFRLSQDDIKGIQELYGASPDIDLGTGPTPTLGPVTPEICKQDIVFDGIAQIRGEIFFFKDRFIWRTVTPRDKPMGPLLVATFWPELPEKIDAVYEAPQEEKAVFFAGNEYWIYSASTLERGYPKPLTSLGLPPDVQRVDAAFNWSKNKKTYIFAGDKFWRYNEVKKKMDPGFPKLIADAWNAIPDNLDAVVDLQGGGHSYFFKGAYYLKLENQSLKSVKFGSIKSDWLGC
Assay Protocol: Inhibition of human active MMP2 using (7-methoxycoumarin-4-yl)acetyl-Pro-Leu-Gly-Leu-(3-(2,4-dinitrophenyl)-L-2,3-diamino-propionyl)Ala-Arg-NH2 as substrate preincubated for 30 mins followed by substrate addition and measured for 10 mins by fluorescence assay
Test Settings: read-out: IC50
Each number you see is log10 of IC50, and the unit inside the log is µM.

Compound: COc1ccc(CC2(CCCCCCCC(F)CF)C(=O)NC(=O)NC2=O)cc1 (racemic)
log10(IC50): -0.86
//
Compound: CCCCCCCCCC1(Cc2ccc(OC)cc2)C(=O)NC(=O)NC1=O
log10(IC50): -1.03
//
Compound: O=C1NC(=O)C(CCCCCCCC(F)CF)(Cc2ccccc2)C(=O)N1 (stereo unspecified)
log10(IC50): -0.49
//
Compound: O=C1NC(=O)C(CCCCCCCC(F)(F)F)(Cc2ccccc2)C(=O)N1
log10(IC50): -0.25
//
Compound: COc1ccc(CC2(CCCCCCC(F)CF)C(=O)NC(=O)NC2=O)cc1 (stereo unspecified)
log10(IC50): -0.39

I am curious: what log10(IC50) value has been reported for COc1ccc(CC2(CCCCCCCC(C)C)C(=O)NC(=O)NC2=O)cc1 ? -0.68

I am curious: what log10(IC50) value has been reported for CCCCCCCCC1(Cc2ccccc2)C(=O)NC(=O)NC1=O ? -0.54

I am curious: what log10(IC50) value has been reported for CCCCCCCCC1(Cc2ccc(OC)cc2)C(=O)NC(=O)NC1=O ? -1.38

I am curious: what log10(IC50) value has been reported for COc1ccc(CC2(CCCCCCCC(F)(F)F)C(=O)NC(=O)NC2=O)cc1 ? -0.68

I am curious: what log10(IC50) value has been reported for O=C1NC(=O)C(CCCCCCC(F)CF)(Cc2ccccc2)C(=O)N1 (stereo unspecified) ? -0.60

I am curious: what log10(IC50) value has been reported for CCCCCCCCCC1(Cc2ccccc2)C(=O)NC(=O)NC1=O ? -0.68
